# System Name: T1, TIGIT on PBMCs (UniProt Q495A1 22-244, limits assumed)
# T1 sequence (looked up): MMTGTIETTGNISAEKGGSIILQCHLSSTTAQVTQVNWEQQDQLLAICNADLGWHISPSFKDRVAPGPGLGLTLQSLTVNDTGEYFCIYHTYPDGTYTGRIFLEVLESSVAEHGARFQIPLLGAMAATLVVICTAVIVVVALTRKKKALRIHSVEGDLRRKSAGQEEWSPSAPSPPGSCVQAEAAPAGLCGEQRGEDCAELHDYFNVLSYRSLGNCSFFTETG
# Method Description: cell-based or functional assay
Assign T-cell activation EC50 to each entry below.
Answer format: numeric, nM implied, no suffix.

Inquiry: If you can, please state the reported T-cell activation EC50 value of TIGIT-SC58 (Fc fusion, VHH-Fc) VHH: EVQLVESGGGLVQPGGSLRLSCAASGFTLGYYVMGWFRQAPGKEREFVATINWSGTLTSYADSVKGRFTISADNSKNTAYLQMNSLKPEDTAVYYCARWVGPKYYFDYWGQGTLVTVSS .
Reply text: 2.08

Inquiry: // lookup T-cell activation EC50 for TIGIT-SC97 (Fc fusion, VHH-Fc) VHH: EVQLVESGGGLVQPGGSLRLSCAASGTAASFNPMGWFRQAPGKEREFVAAISWSGGSTNYADSVKGRFTISADNSKNTAYLQMNSLKPEDTAVYYCVTYSAYDFRNAWGQGTLVTVSS
Reply text: 7.11

Inquiry: Quick one: T-cell activation EC50 for TIGIT-SC41 (Fc fusion, VHH-Fc) VHH: EVQLVESGGGLVQPGGSLRLSCAASGMTTIGPMGWFRQAPGKEREFVASIAWGDGNTYYADSVKGRFTISADNSKNTAYLQMNSLKPEDTAVYYCVRGGSRTLWGQGTLVTVSS ?
Reply text: 1.83

Inquiry: // lookup T-cell activation EC50 for TIGIT-SC63 (Fc fusion, VHH-Fc) VHH: EVQLVESGGGLVQPGGSLRLSCAASGRAIGSYGMGWFRQAPGKEREFVATISVSGVYTYYADSVKGRFTISADNSKNTAYLQMNSLKPEDTAVYYCARATPGGVVPWGQGTLVTVSS
Reply text: 88.1

Inquiry: Which T-cell activation EC50 value is on record for TIGIT-SC24 (Fc fusion, VHH-Fc) VHH: EVQLVESGGGLVQPGGSLRLSCAASGFTFDRSWMGWFRQAPGKEREVVASITSGGSTYYADSVKGRFTISADNSKNTAYLQMNSLKPEDTAVYYCAADVWYGSTWRNWGQGTLVTVSS ?
Reply text: 7.53
